Origin of the recorded values: patent US7767854B2

System: male Std: Wistar rats
run description: Pain test by plantar thermal stimuli (plantar test)
Type: in vivo
particulars: Rattus norvegicus, 4 h, 50 μl of 0.03% (W/V) solution i.pl. into right hind-paw; 4 hours after administration; cut-off 25 seconds; read-out: % MPE (percent maximum possible effect, withdrawal latency)
attribute measured: change in vivo at 300 µg/mL (%)
# value in %; strip the unit string

molecule	change in vivo at 300 µg/mL / %
COc1cc(CC(=O)N[C@H]2CC[C@H](/C=C/CC(C)C)CC2)ccc1O [Example 56]	70.2
COc1cc(CC(=O)N[C@H]2CC[C@@H](/C=C/C(C)C)CC2)ccc1O [Example 63]	96.4
CCC(CC)[C@H]1CC[C@H](NC(=O)Cc2ccc(O)c(OC)c2)CC1 [Example 84]	76.9
CCC1(CC)CCC(NC(=O)Cc2ccc(O)c(OC)c2)CC1 [Example 106]	51.5

Query: Returns the measured change in vivo at 300 µg/mL for the input molecule. Input: COc1cc(CC(=O)N[C@H]2CC[C@H](CC3CC3)CC2)ccc1O [Example 100]
Result: 44.5

Query: Lookup COc1cc(CC(=O)N[C@H]2CC[C@H](CCC3CC3)CC2)ccc1O [Example 32]
Result: 85.5

Query: Lookup CCCCC[C@H]1CC[C@@H](NC(=O)Cc2ccc(O)c(OC)c2)CC1 [Example 8]
Result: 88.4

Query: Lookup CCC[C@H]1CC[C@@H](NC(=O)Cc2ccc(O)c(OC)c2)CC1 [Example 68]
Result: 81.6

Query: Lookup COc1cc(CC(=O)NC2CCC(=C(C)C)CC2)ccc1O (stereo not drawn) [Example 82]
Result: 68.4

====

System: male Std: Wistar rats
run description: Pain test by plantar thermal stimuli (plantar test)
Format: in vivo
particulars: Rattus norvegicus, 4 h, 50 μl of 0.03% (W/V) solution i.pl. into right hind-paw; 4 hours after administration; cut-off 25 seconds; read-out: % MPE (percent maximum possible effect, withdrawal latency)
The label condition met is reserved for change in vivo at 300 µg/mL strictly under 90%; condition not met covers values equal to or above it.

compound	label class
CCCC(CCC)C1=CCC(NC(=O)Cc2ccc(O)c(OC)c2)CC1 (stereo not drawn)	condition not met
CCCCC1(CC)CCC(NC(=O)Cc2ccc(O)c(OC)c2)CC1 (stereo not drawn)	condition met
CCCCC1CCC(NC(=O)Cc2ccc(O)c(OC)c2)CC1 (stereo not drawn)	condition met
C/C=C\C[C@H]1CC[C@H](NC(=O)Cc2ccc(O)c(OC)c2)CC1	condition met
CCCC[C@H]1CC[C@H](NC(=O)Cc2ccc(O)c(OC)c2)CC1	condition met

Query: Consider `COc1cc(CC(=O)N[C@H]2CC[C@H](C3CCC3)CC2)ccc1O` . Does its change in vivo at 300 µg/mL lie strictly below 90%?
Result: condition met

Query: Lookup `COc1cc(CC(=O)N[C@H]2CC[C@H](C=C3CCCC3)CC2)ccc1O`
Result: condition not met

Query: Lookup `C/C=C/[C@H]1CC[C@H](NC(=O)Cc2ccc(O)c(OC)c2)CC1`
Result: condition met

====

System: male Std: Wistar rats
run description: Pain test by plantar thermal stimuli (plantar test)
Assay type: in vivo
particulars: Rattus norvegicus, 4 h, 50 μl of 0.03% (W/V) solution i.pl. into right hind-paw; 4 hours after administration; cut-off 25 seconds; read-out: % MPE (percent maximum possible effect, withdrawal latency)
Below, each of the molecules is paired with its reported change in vivo at 300 µg/mL value.
# value in %; strip the unit string

molecule	attribute measured	experimental value
C=C(C)/C=C/[C@H]1CC[C@H](NC(=O)Cc2ccc(O)c(OC)c2)CC1 [Example 72]	change in vivo at 300 µg/mL	75.4
CCC(CC)C1=CCC(NC(=O)Cc2ccc(O)c(OC)c2)CC1 (stereo not drawn) [Example 88]	change in vivo at 300 µg/mL	95.5
CCOC(=O)/C=C/[C@H]1CC[C@H](NC(=O)Cc2ccc(O)c(OC)c2)CC1 [Example 20]	change in vivo at 300 µg/mL	53.8

Query: Returns the measured change in vivo at 300 µg/mL for the input molecule. Input: COc1cc(CC(=O)N[C@H]2CC[C@H](CC(C)C)CC2)ccc1O [Example 33]
Result: 73.3

Query: Lookup COc1cc(CC(=O)N[C@H]2CC[C@@H](CC(C)C)CC2)ccc1O [Example 96]
Result: 80.4

Query: Lookup CC/C=C/[C@H]1CC[C@@H](NC(=O)Cc2ccc(O)c(OC)c2)CC1 [Example 62]
Result: 86.3

Query: Lookup COc1cc(CC(=O)N[C@H]2CC[C@H](/C=C\CC(F)(F)F)CC2)ccc1O [Example 23]
Result: 77.9

Query: Lookup COc1cc(CC(=O)N[C@H]2CC[C@H](CCCC(C)C)CC2)ccc1O [Example 27]
Result: 89.5

Query: Lookup COc1cc(CC(=O)NC2CCC(=C3CCCC3)CC2)ccc1O (stereo not drawn) [Example 80]
Result: 37
